# IC50 annotations
target: PARP3 (Homo sapiens); construct: Recombinant full length PARP3 protein; test: PARP fluorescence anisotropy binding assay, PARP3; details: recombinant full length PARP3
Sequence (Q9Y6F1 whole entry): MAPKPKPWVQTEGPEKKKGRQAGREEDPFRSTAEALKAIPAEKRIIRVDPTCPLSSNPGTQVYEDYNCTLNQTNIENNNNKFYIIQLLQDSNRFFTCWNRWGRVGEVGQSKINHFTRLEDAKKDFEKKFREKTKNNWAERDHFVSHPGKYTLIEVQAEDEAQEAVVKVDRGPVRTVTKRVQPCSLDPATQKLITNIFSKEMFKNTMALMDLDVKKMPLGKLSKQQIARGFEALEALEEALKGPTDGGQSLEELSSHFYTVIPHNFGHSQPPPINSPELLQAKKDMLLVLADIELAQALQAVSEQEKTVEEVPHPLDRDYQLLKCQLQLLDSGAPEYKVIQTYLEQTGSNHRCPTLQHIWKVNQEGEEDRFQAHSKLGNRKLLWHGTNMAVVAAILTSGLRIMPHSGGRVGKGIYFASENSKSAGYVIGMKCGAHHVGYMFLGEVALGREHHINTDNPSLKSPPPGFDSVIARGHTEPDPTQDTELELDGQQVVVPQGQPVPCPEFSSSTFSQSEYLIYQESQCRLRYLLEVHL

// worked examples, IC50 included
>>> df
                                   molecule  result_type  data_value
0  CNC(=O)c1ccc(N2CCN(Cc3ccc4nc(C(C)F)c(=O)[nH]c4c3F)CC2)c(F)n1 (single isomer, unassigned) [Example 12]         IC50       85 µM
1  CNC(=O)c1ccc(N2CCN(Cc3ccc4nc(C)c(=O)[nH]c4c3F)CC2)c(F)n1         IC50    > 100 µM
2  CNC(=O)c1ccc(N2CCN(Cc3ccc4nc(C)c(=O)[nH]c4c3Cl)CC2)c(C)n1         IC50    > 100 µM
3  CCc1nc2ccc(CN3CCN(c4ccc(C(=O)NC)nc4Cl)CC3)c(Cl)c2[nH]c1=O         IC50    > 100 µM
4  CCc1nc2ccc(CN3CCN(c4ccc(C(=O)NC)nc4C)CC3)c(Cl)c2[nH]c1=O         IC50    > 100 µM

What does the data say about its IC50? Entry: CNC(=O)c1ccc(N2CCN(Cc3ccc4nc(C)c(=O)[nH]c4c3Cl)CC2)c(F)n1
> 100 µM
